Structures can show the parent of a compound that is named as a salt.
Assay system Escherchia coli NIHJ JC-2; read-out recorded as MIC.
value-type: MIC (µg/mL)

Sample records with MIC:
| compound | value-type | recorded-measurement |
| --- | --- | --- |
| CC(C)(O/N=C(\C(=O)N[C@H]1CN(OCC(=O)O)C1=O)c1csc(N)n1)C(=O)O [Example 5, disodium salt] | MIC | 0.78 |
| NC(=O)OC[C@H]1[C@H](NC(=O)/C(=N\OCC(=O)O)c2csc(N)n2)C(=O)N1OCC(=O)O (relative stereo) [Example 17, disodium salt] | MIC | 0.39 |

[P] C[C@H]1[C@H](NC(=O)/C(=N\OCC(=O)O)c2csc(N)n2)C(=O)N1OCC(=O)O [Example 19, disodium salt]
[Q] CCN1CCN(C(=O)N[C@@H](C(=O)N[C@@H]2C(=O)N(OCC(=O)O)[C@H]2C)c2ccccc2)C(=O)C1=O [Example 4, monosodium salt]
Which entry shows the lesser value of MIC here, P or Q ? State your choice using its label.
P
(P: 0.39 µg/mL, Q: 12.5 µg/mL)

====

Consider molecules characterized by their MIC with Enterobacter cloacae IFO 12937.
Where a name gives a salt, the structure may show the parent alone.
value-type: MIC (µg/mL)

// below: answered molecules
| molecule | MIC, µg/mL |
| --- | --- |
| CC(C)(O/N=C(\C(=O)N[C@H]1CN(OCC(=O)O)C1=O)c1csc(N)n1)C(=O)O [Example 5, disodium salt] | 50 |
| C[C@H]1[C@H](NC(=O)/C(=N\OC(C)(C)C(=O)O)c2csc(N)n2)C(=O)N1OCC(=O)O [Example 3, disodium salt] | 12.5 |
| CC(C)(O/N=C(\C(=O)N[C@@H]1C(=O)N(OCC(=O)O)[C@H]1COC(N)=O)c1csc(N)n1)C(=O)O (relative stereo) [Example 18, disodium salt] | 0.78 |

[I] C[C@H]1[C@H](NC(=O)/C(=N\OCC(=O)O)c2csc(N)n2)C(=O)N1OCC(=O)O [Example 19, disodium salt]
[II] NC(=O)OC[C@H]1[C@H](NC(=O)/C(=N\OCC(=O)O)c2csc(N)n2)C(=O)N1OCC(=O)O (relative stereo) [Example 17, disodium salt]
[III] CO/N=C(\C(=O)N[C@@H]1C(=O)N(OCC(=O)O)[C@H]1C)c1csc(N)n1 [Example 2, monosodium salt]
Arrange the 3 entries by MIC so the values rise. Reply with the labels, ordered as the question asks.
II, III, I

====

As an illustration, consider measured MIC for compounds on Serratia marcescens IFO 12648.
Structures can show the parent of a compound that is named as a salt.
value-type: MIC (µg/mL)

Sample answers from the record:
| compound | system-name | MIC (µg/mL) |
| --- | --- | --- |
| CCN1CCN(C(=O)N[C@@H](C(=O)N[C@@H]2C(=O)N(OCC(=O)O)[C@H]2C)c2ccccc2)C(=O)C1=O [Example 4, monosodium salt] | Serratia marcescens IFO 12648 | 6.25 |
| CO/N=C(\C(=O)N[C@@H]1C(=O)N(OCC(=O)O)[C@H]1C)c1csc(N)n1 [Example 2, monosodium salt] | Serratia marcescens IFO 12648 | 0.39 |
| CC(C)(O/N=C(\C(=O)N[C@@H]1C(=O)N(OCC(=O)O)[C@H]1COC(N)=O)c1csc(N)n1)C(=O)O (relative stereo) [Example 18, disodium salt] | Serratia marcescens IFO 12648 | 0.39 |
| NC(=O)OC[C@H]1[C@H](NC(=O)/C(=N\OCC(=O)O)c2csc(N)n2)C(=O)N1OCC(=O)O (relative stereo) [Example 17, disodium salt] | Serratia marcescens IFO 12648 | 0.39 |

[P] C[C@H]1[C@H](NC(=O)/C(=N\OCC(=O)O)c2csc(N)n2)C(=O)N1OCC(=O)O [Example 19, disodium salt]
[Q] CC(C)(O/N=C(\C(=O)N[C@H]1CN(OCC(=O)O)C1=O)c1csc(N)n1)C(=O)O [Example 5, disodium salt]
Please compare: P and Q . Report which one has the smaller MIC value. Refer to your chosen entry by its label in the reply.
P
